target: IDH1 (Homo sapiens, UniProt O75874); test: IDH enzyme assay, NADPH production by diaphorase/resazurin coupled detection; format: biochemical; conditions: IDH1 WT; pre-incubated with enzyme for 1 h at room temperature; 65 μM Isocitrate+50 μM NADP; 10-dose, 3-fold dilution from 10 μM; read-out: Compound IC50 (nM) IDH1
Sequence (O75874 whole entry): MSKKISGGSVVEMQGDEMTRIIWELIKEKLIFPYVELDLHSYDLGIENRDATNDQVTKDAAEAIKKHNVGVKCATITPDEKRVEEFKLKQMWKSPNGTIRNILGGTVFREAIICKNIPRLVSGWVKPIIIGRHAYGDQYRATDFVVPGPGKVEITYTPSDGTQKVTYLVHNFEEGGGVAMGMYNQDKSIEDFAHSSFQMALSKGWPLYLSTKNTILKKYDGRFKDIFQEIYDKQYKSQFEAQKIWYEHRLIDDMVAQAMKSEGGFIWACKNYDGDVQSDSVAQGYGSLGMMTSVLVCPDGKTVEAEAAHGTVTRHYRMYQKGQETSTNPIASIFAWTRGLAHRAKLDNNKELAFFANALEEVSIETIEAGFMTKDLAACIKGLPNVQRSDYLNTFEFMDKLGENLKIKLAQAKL
Measurement type: IC50

Some entries whose results are on file:
INSERT INTO results (compound, measurement) VALUES
  ('CC1CN(C(=O)c2ccc[nH]2)Cc2c(C(=O)Nc3cccc(NC(=O)CCl)c3)nn(Cc3ccc(F)cc3)c21 (stereo not shown)', '> 10000 nM'),
  ('C=CC(=O)Nc1ccc(NC(=O)c2nn(Cc3ccc(F)cc3)c3c2CN(C(=O)c2ccc[nH]2)CC3C)s1 (stereo not shown)', '4780 nM'),
  ('C=CC(=O)Nc1ccc(Cn2nc(C(=O)Nc3cccc(C)c3)c3c2C(C)CN(C(=O)c2ccc[nH]2)C3)cc1C (stereo not shown)', '> 10000 nM');

Let's switch to this compound now.
Prompt: Which IC50 value belongs to C=CC(=O)NC1CC(NC(=O)c2nn(Cc3ccc(F)cc3)c3c2CN(C(=O)c2ccc[nH]2)CC3C)C1 (stereo not shown) ?
Completion: > 10000 nM

Numbers sourced from patent US20210101899A1.
